experimental-system: Receptor-binding domain (RBD) of the SARS-CoV-2 spike protein, WA01/2020 strain (SARS-CoV-2, WA01/2020 strain, UniProt P0DTC2 319-541)
run-description: dose-response ELISA on coated antigen
quantity-measured: EC50 (nM)
Output spec: scalar in nM, unitless text.

query: What value of EC50 has been reported for the following binder? antibody 2564 (antibody, V domains shown) VH: QVQLVQSGAEVKKPGSSVRVSCKASGGTFISYTFNWVRQAPGQGLEWMGRIIPIFGIVNYAQKFQGRVTIAADKSTSTAYMELSSLRSEDTAMYYCATATVDYDSGEEQSSFDPWGQGTLVTVSS VL: EIVLTQSPGTLSLSPGERATLSCRASQSVSSSYLAWYQQKAGQTPRLLIYAASSRATGVPDRFSGSGSGTDFTLTISRLEAEDFAVYYCQQSWTFGQGTKVEIK
result: 0.023

query: antibody 1679 (antibody, V domains shown) VH: QITLKESGPTLVKPTQTLTLTCTFSGFSLSTVGVGVAWIRQPPGKALEWLALIYWDDDKRYSPSLKSRLTITKDTSKNHVVLTMTNMDPVDTATYYCAHHIIAALVDVWGKGTTVTVSS VL: QSALTQPASVSGSPGQSITISCTGTSSDVGGNNYVSWYQHHPGEAPKLMIYEVSNRPSGVSNRFSGSKSGNTASLTISGLQAEDEADYYCSSYTTSSTLVVFGGGSKLTVL ?
result: 0.003

query: Would you kindly repeat that for antibody 980 (antibody, V domains shown) VH: QVQLVESGGGVVQPGRSLRLSCAASGFTFSRYGMHWVRQAPGKGLEWVALISSGGSNKYYADSVKGRFTISRDNSKNTLYLEMNSLRAEDTAVYYCAKDAIYDYIWGAYRENWFDPWGQGTLVTVSS VL: DIQMTQSPSSLSASVGDRVTITCRASQSISNYLNWYQQKPGKAPNLLIYAASSLQSGVPSRFSGSGSGTDFTLTISSLQPEDFATYYCQQTSSPPLTFGQGTKVEIK ?
result: 0.023

query: Input antibody 1231 (antibody, V domains shown) VH: QVQLVQSGSELKKPGASVKVSCTGYGYTFTSYAMNWVRQAPGQGLEWMGWINTNTGHPAYAQGFTGRFVFSLDSSVSTAYLQISSLKAEDTAVYYCATTIRAGGYFDFWGQGTLVTVSS VL: DIQLTQSPSFLSASVGDRVTITCRASQGISSYLAWFQQKPGKAPKLLIYVVSILQSGVPSRFSGSGSGTEFTLTISSLQPEDFATYYCQQLNSYPYTFGQGTKLEIK
result: 0.018

query: Now consider antibody 1439 (antibody, V domains shown) VH: QVQLQESGPGLVKPSETLSLTCTVSGDSISTYYWSWIRQPPGKGLEWIGYIHYSGSTNYNPSLKSRVAVSVDTSKNQFSLKLSSVTAADTAVYYCARGGGVFGVVINFDYWGQGILVTVSS VL: NFMLTQPYSVSESPGKTVTISCTRSSGSIASNYVQWYQQRPGSAPTTVIYEDNQRPSGVPDRFSGSIDSSSNSASLTISGLKTEDEADYYCQSRDSSNPVVFGGGTKLTVL and answer again.
result: 0.0099
